Exercise: state measured pKi for each of the compounds provided.
- target_of_assay: Macrophage migration inhibitory factor (Homo sapiens, UniProt P14174)
- Sequence (P14174 whole entry): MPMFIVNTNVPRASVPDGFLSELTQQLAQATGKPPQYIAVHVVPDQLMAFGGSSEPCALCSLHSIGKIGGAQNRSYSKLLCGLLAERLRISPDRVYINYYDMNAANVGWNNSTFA
To interpret pKi, take it as minus log10 of a concentration measured in moles per litre.

(Q) Please give measured pKi of the following entry: `O=C(O)/C=C/c1ccc(O)cc1F`
(A) 5.59

(Q) Please give measured pKi of the following entry: `CN(C)c1ccc(/C=C2\C(=O)Oc3ccccc3C2=O)cc1`
(A) 5.21

(Q) Please give measured pKi of the following entry: `NC(=S)c1cc2ccc(O)cc2oc1=O`
(A) 6.26

(Q) Please give measured pKi of the following entry: `O=c1oc2cc(O)ccc2cc1-c1ccccc1`
(A) 6.33

(Q) Please give measured pKi of the following entry: `N#Cc1cc2ccc(O)cc2oc1=O`
(A) 5.54

(Q) Please give measured pKi of the following entry: `CC(=O)c1cc2ccc(O)cc2oc1=O`
(A) 5.37

(Q) Please give measured pKi of the following entry: `Cc1csc(-c2cc3ccc(O)cc3oc2=O)n1`
(A) 5.51

(Q) Please give measured pKi of the following entry: `CCOC(=O)CC(=O)c1cc2ccc(O)cc2oc1=O`
(A) 5.24

(Q) Please give measured pKi of the following entry: `Cc1nc(-c2cc3ccc(O)cc3oc2=O)cs1`
(A) 5.68

Origin of values: ChEMBL document CHEMBL1134345
